Where these numbers come from: the supplement of paper PMC9112550

- System: Escherichia coli TOP10
- measurementNotes: shrunken log2 fold change of peptide-encoding DNA abundance (4.5 h post-induction vs induction); higher = less antimicrobial activity (less host growth inhibition)
- experimentalSetup: time post-induction: 4.5 h; library: site-saturation at positions 5, 18, 19, 20
measurementKind: shrunken log2 fold change
Give bare numbers.

Observe how each entry below is paired with its result.
[
  {
    "polymerSequence": "RRIRLRPPRLPRPRPRPPFYPRP",
    "shrunken log2 fold change": -0.185
  },
  {
    "polymerSequence": "RRIRMRPPRLPRPRPRPNVFPRP",
    "shrunken log2 fold change": 0.136
  },
  {
    "polymerSequence": "RRIRPRPPRLPRPRPRPDGWPRP",
    "shrunken log2 fold change": 0.354
  },
  {
    "polymerSequence": "RRIRERPPRLPRPRPRPVIQPRP",
    "shrunken log2 fold change": 0.0166
  },
  {
    "polymerSequence": "RRIRPRPPRLPRPRPRPMDLPRP",
    "shrunken log2 fold change": -0.00399
  }
]

Go through the items and report each one's shrunken log2 fold change.
1. RRIRCRPPRLPRPRPRPADIPRP
2. RRIRMRPPRLPRPRPRPRCSPRP
3. RRIRHRPPRLPRPRPRPESFPRP
4. RRIRQRPPRLPRPRPRPWMIPRP

Out:
[-0.941, 0.393, -0.0018, 0.0219]

----------
Assignment: determine reported shrunken log2 fold change for the given sequences.
- System: Escherichia coli TOP10
- measurementNotes: shrunken log2 fold change of peptide-encoding DNA abundance (4.5 h post-induction vs induction); higher = less antimicrobial activity (less host growth inhibition)
- experimentalSetup: time post-induction: 4.5 h; library: site-saturation at positions 5, 18, 19, 20
One number for each entry.

Go through the items and report each one's shrunken log2 fold change.
1. RRIRHRPPRLPRPRPRPGCSPRP
2. RRIRPRPPRLPRPRPRPLDEPRP
3. RRIRIRPPRLPRPRPRPHLGPRP
4. RRIRGRPPRLPRPRPRPRDQPRP
5. RRIRPRPPRLPRPRPRPTWEPRP
6. RRIRARPPRLPRPRPRPIAGPRP
7. RRIRMRPPRLPRPRPRPDIYPRP

Out:
1: -0.08; 2: 0.102; 3: 0.0798; 4: 1.26; 5: 0.659; 6: 0.163; 7: 0.0832

Go through the items and report each one's shrunken log2 fold change.
1. RRIRDRPPRLPRPRPRPYETPRP
2. RRIRKRPPRLPRPRPRPPKAPRP
3. RRIRVRPPRLPRPRPRPNWKPRP
4. RRIRERPPRLPRPRPRPTKMPRP
5. RRIRDRPPRLPRPRPRPMGEPRP
6. RRIRGRPPRLPRPRPRPIISPRP

Out:
1. -0.198
2. 0.609
3. -0.0426
4. -0.22
5. -6.53e-05
6. 0.507

Go through the items and report each one's shrunken log2 fold change.
1. RRIRIRPPRLPRPRPRPAEQPRP
2. RRIRLRPPRLPRPRPRPRVLPRP
3. RRIRYRPPRLPRPRPRPITRPRP

Out:
1. -0.0532
2. -0.132
3. 0.0448

----------
- Tested on: Escherichia coli TOP10;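 further: peptides expressed intracellularly from a pBAD plasmid library in pooled LB shake-flask culture, induced with 0.3% L-arabinose, DNA abundance read by NGS, three biological replicates, DESeq2 with apeglm shrinkage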
- measurementNotes: shrunken log2 fold change of peptide-encoding DNA abundance (4.5 h post-induction vs induction); higher = less antimicrobial activity (less host growth inhibition)
- experimentalSetup: time post-induction: 4.5 h; library: site-saturation at positions 5, 18, 19, 20
measurementKind: shrunken log2 fold change
One number for each entry.

Observe how each entry below is paired with its result.
[
  {
    "polymerSequence": "RRIRGRPPRLPRPRPRPWQAPRP",
    "measurementKind": "shrunken log2 fold change",
    "reported": 0.00236
  },
  {
    "polymerSequence": "RRIRRRPPRLPRPRPRPKPMPRP",
    "measurementKind": "shrunken log2 fold change",
    "reported": 0.687
  },
  {
    "polymerSequence": "RRIRNRPPRLPRPRPRPHPHPRP",
    "measurementKind": "shrunken log2 fold change",
    "reported": -0.576
  }
]

Next:
In: So what does the record say about shrunken log2 fold change for "RRIRGRPPRLPRPRPRPWSTPRP" ?
Out: 0.243
